Values compiled from ChEMBL document CHEMBL3585321.

# System: Escherichia coli
# METHOD: Antibacterial activity against wild type Escherichia coli K-12 assessed as inhibition of bacterial growth at antibacterial IC50 level in presence of 10 times IC50 levels of putrescine
# Format: functional, organism-based
Activity calls are given as the source filed them. The rule behind the calls is not given here.
# output must be one of True (active), False (inactive)

Given O=C(N[C@H](CO)[C@H](O)c1ccc([N+](=O)[O-])cc1)C(Cl)Cl [CHLORAMPHENICOL] , state the outcome it received in this test.
True

Given "NCCCCN(CCCN)C(=O)CCC(=O)N[C@H](CO)[C@H](O)c1ccc([N+](=O)[O-])cc1" , state the outcome it received in this test.
False

Given "O=C(CCC(=O)N[C@H](CO)[C@H](O)c1ccc([N+](=O)[O-])cc1)NCCCNCCCCN(Cc1ccccc1)Cc1ccccc1" , state the outcome it received in this test.
False

Given "NCCCN(CCCCN(Cc1ccccc1)Cc1ccccc1)C(=O)CCC(=O)N[C@H](CO)[C@H](O)c1ccc([N+](=O)[O-])cc1" , state the outcome it received in this test.
False

Given "NCCCNCCCCNCCCNC(=O)CCC(=O)N[C@H](CO)[C@H](O)c1ccc([N+](=O)[O-])cc1" , state the outcome it received in this test.
False

----------
# Test system: Staphylococcus aureus
# METHOD: Antibacterial activity against methicillin-resistant Staphylococcus aureus GRE2691 assessed as inhibition of bacterial growth
# Type: functional, organism-based
The source made the active and inactive calls. The calls are words filed in the database; no cut-off is given here.
QUANTITY_MEASURED: growth inhibition (GI)

// worked examples, growth inhibition (GI) included
cpd_smiles=NC[C@H]1O[C@H](O[C@H]2[C@H](O)[C@@H](O[C@H]3O[C@H](CO)[C@@H](O)[C@H](N)[C@H]3O)[C@H](N)C[C@@H]2N)[C@H](O)[C@@H](O)[C@@H]1O result=inactive
cpd_smiles=CN(C)[C@@H]1C(O)=C(C(N)=O)C(=O)[C@@]2(O)C(O)=C3C(=O)c4c(O)cccc4[C@@](C)(O)[C@H]3C[C@@H]12 result=inactive
cpd_smiles=CN[C@H](CC(C)C)C(=O)N[C@H]1C(=O)N[C@@H](CC(N)=O)C(=O)N[C@H]2C(=O)N[C@H]3C(=O)N[C@H](C(=O)N[C@H](C(=O)O)c4cc(O)cc(O)c4-c4cc3ccc4O)[C@H](O)c3ccc(c(Cl)c3)Oc3cc2cc(c3O[C@@H]2O[C@H](CO)[C@@H](O)[C@H](O)[C@H]2O[C@H]2C[C@](C)(N)[C@H](O)[C@H](C)O2)Oc2ccc(cc2Cl)[C@H]1O result=Active
cpd_smiles=CO[C@H]1/C=C/O[C@@]2(C)Oc3c(C)c(O)c4c(O)c(c(/C=N/N5CCN(C)CC5)c(O)c4c3C2=O)NC(=O)/C(C)=C\C=C\[C@H](C)[C@H](O)[C@@H](C)[C@@H](O)[C@@H](C)[C@H](OC(C)=O)[C@@H]1C result=Active
cpd_smiles=CCC[C@@H]1C[C@@H](C(=O)N[C@@H]([C@H]2O[C@H](SC)[C@H](O)[C@@H](O)[C@H]2O)[C@H](C)Cl)N(C)C1 result=Active
cpd_smiles=Cc1onc(-c2ccccc2)c1C(=O)N[C@@H]1C(=O)N2[C@@H]1SC(C)(C)[C@@H]2C(=O)O result=inactive
cpd_smiles=COc1cccc(OC)c1C(=O)N[C@@H]1C(=O)N2[C@@H]1SC(C)(C)[C@@H]2C(=O)O result=inactive
cpd_smiles=CC(=O)O[C@H]1C[C@@]2(C)[C@@H](C[C@@H](O)[C@H]3[C@@]4(C)CC[C@@H](O)[C@@H](C)[C@@H]4CC[C@@]32C)/C1=C(\CCC=C(C)C)C(=O)O result=inactive
cpd_smiles=CC(=O)N[C@@H]1[C@H](Oc2c3cc4cc2Oc2ccc(cc2Cl)[C@@H](O[C@@H]2O[C@@H](CO)[C@@H](O)[C@H](O)[C@@H]2NC(C)=O)[C@@H]2NC(=O)[C@H](NC(=O)[C@@H]4NC(=O)[C@H]4NC(=O)[C@@H](Cc5ccc(c(Cl)c5)O3)NC(=O)[C@H](N)c3ccc(O)c(c3)Oc3cc(O)cc4c3)c3ccc(O)c(c3)-c3c(O[C@H]4O[C@H](CO)[C@@H](O)[C@@H](O)[C@@H]4O)cc(O)cc3[C@@H](C(=O)O)NC2=O)O[C@@H](CO)[C@@H](O)[C@@H]1O result=Active
cpd_smiles=CC[C@H]1OC(=O)[C@H](C)[C@@H](O[C@H]2C[C@@](C)(OC)[C@@H](O)[C@H](C)O2)[C@H](C)[C@@H](O[C@@H]2O[C@H](C)C[C@H](N(C)C)[C@H]2O)[C@](C)(O)C[C@@H](C)C(=O)[C@H](C)[C@@H](O)[C@]1(C)O result=inactive

Query "CCCCCCCCCC(=O)N[C@@H](Cc1c[nH]c2ccccc12)C(=O)N[C@H](CC(N)=O)C(=O)N[C@@H](CC(=O)O)C(=O)N[C@@H]1C(=O)NCC(=O)N[C@@H](CCCN)C(=O)N[C@@H](CC(=O)O)C(=O)N[C@H](C)C(=O)N[C@@H](CC(=O)O)C(=O)NCC(=O)N[C@H](CO)C(=O)N[C@@H]([C@H](C)CC(=O)O)C(=O)N[C@@H](CC(=O)c2ccccc2N)C(=O)O[C@@H]1C" yields growth inhibition (GI) of Active

Query "CO[C@@]1(NC(=O)Cc2cccs2)C(=O)N2C(C(=O)O)=C(COC(N)=O)CS[C@@H]21" yields growth inhibition (GI) of inactive

----------
# System: Escherichia coli
# METHOD: Antibacterial activity against wild type Escherichia coli K-12 assessed as inhibition of bacterial growth at antibacterial IC50 level in presence of 10 times IC50 levels of spermine
# Format: functional, organism-based
Active and inactive are the calls of the source. The calls are words filed in the database; no cut-off is given here.
# output must be one of 1.0 (active), 0.0 (inactive)

Given "NCCCCN(CCCN)C(=O)CCC(=O)N[C@H](CO)[C@H](O)c1ccc([N+](=O)[O-])cc1" , state the outcome it received in this test.
0.0

Given "O=C(CCC(=O)N[C@H](CO)[C@H](O)c1ccc([N+](=O)[O-])cc1)NCCCNCCCCN(Cc1ccccc1)Cc1ccccc1" , state the outcome it received in this test.
0.0

Given "NCCCN(CCCCN(Cc1ccccc1)Cc1ccccc1)C(=O)CCC(=O)N[C@H](CO)[C@H](O)c1ccc([N+](=O)[O-])cc1" , state the outcome it received in this test.
0.0

Given "NCCCNCCCCNCCCNC(=O)CCC(=O)N[C@H](CO)[C@H](O)c1ccc([N+](=O)[O-])cc1" , state the outcome it received in this test.
0.0

Given O=C(N[C@H](CO)[C@H](O)c1ccc([N+](=O)[O-])cc1)C(Cl)Cl [CHLORAMPHENICOL] , state the outcome it received in this test.
1.0

----------
# System: Staphylococcus aureus
# METHOD: Antibacterial activity against methicillin-resistant Staphylococcus aureus GRE2372 assessed as inhibition of bacterial growth
# Format: functional, organism-based
QUANTITY_MEASURED: IC50

Short answer on Staphylococcus aureus for "O=C(CCNC(=O)c1nc[nH]n1)N[C@H](CO)[C@H](O)c1ccc([N+](=O)[O-])cc1" , IC50: > 100 µM

Short answer on Staphylococcus aureus for "O=C(CCC(=O)N[C@H](CO)[C@H](O)c1ccc([N+](=O)[O-])cc1)NCCCNCCCCN(Cc1ccccc1)Cc1ccccc1" , IC50: > 100 µM

Short answer on Staphylococcus aureus for "NCCCCNC(=O)CCC(=O)N[C@H](CO)[C@H](O)c1ccc([N+](=O)[O-])cc1" , IC50: > 200 µM

Short answer on Staphylococcus aureus for "NCCCCN(CCCN)C(=O)CCC(=O)N[C@H](CO)[C@H](O)c1ccc([N+](=O)[O-])cc1" , IC50: > 100 µM

Short answer on Staphylococcus aureus for "NCCCN(CCCCN(Cc1ccccc1)Cc1ccccc1)C(=O)CCC(=O)N[C@H](CO)[C@H](O)c1ccc([N+](=O)[O-])cc1" , IC50: 9 µM

Short answer on Staphylococcus aureus for "NCCCCNC(=O)c1ccccc1C(=O)N[C@H](CO)[C@H](O)c1ccc([N+](=O)[O-])cc1" , IC50: > 200 µM

Short answer on Staphylococcus aureus for "NCCCNCCCCNCCCNC(=O)CCC(=O)N[C@H](CO)[C@H](O)c1ccc([N+](=O)[O-])cc1" , IC50: > 200 µM

Short answer on Staphylococcus aureus for "O=C(N[C@H](CO)[C@H](O)c1ccc([N+](=O)[O-])cc1)c1nc[nH]n1" , IC50: > 100 µM

Short answer on Staphylococcus aureus for "O=C(N[C@H](CO)[C@H](O)c1ccc([N+](=O)[O-])cc1)C(Cl)Cl" , IC50: 6 µM

----------
# Tested on: Staphylococcus aureus
# METHOD: Antibacterial activity against methicillin-resistant Staphylococcus aureus GRE2372 assessed as inhibition of bacterial growth
# Assay type: functional, organism-based
Activity calls are given as the source filed them. No cut-off for these calls is given here.
QUANTITY_MEASURED: growth inhibition (GI)

cpd_smiles=CO[C@@]1(NC(=O)Cc2cccs2)C(=O)N2C(C(=O)O)=C(COC(N)=O)CS[C@@H]21 measurement_target="Staphylococcus aureus" quantity_measured="growth inhibition (GI)" result=inactive
cpd_smiles=CO[C@H]1/C=C/O[C@@]2(C)Oc3c(C)c(O)c4c(O)c(c(/C=N/N5CCN(C)CC5)c(O)c4c3C2=O)NC(=O)/C(C)=C\C=C\[C@H](C)[C@H](O)[C@@H](C)[C@@H](O)[C@@H](C)[C@H](OC(C)=O)[C@@H]1C measurement_target="Staphylococcus aureus" quantity_measured="growth inhibition (GI)" result=inactive
cpd_smiles=CC(=O)O[C@H]1C[C@@]2(C)[C@@H](C[C@@H](O)[C@H]3[C@@]4(C)CC[C@@H](O)[C@@H](C)[C@@H]4CC[C@@]32C)/C1=C(\CCC=C(C)C)C(=O)O measurement_target="Staphylococcus aureus" quantity_measured="growth inhibition (GI)" result=inactive
